# test.description: qHTS assay for MDR1-selective chemotherapeutics: Primary screen using the drug-selected MDR subline cells KB-V1; note: nearly all actives have a fitted effect of over 60% in size
# condition: KB-V1 MDR cells viability, CellTiter-Glo, 72 h; series mostly up to 46.1 µM
Among all 400,000 compounds or so, about 13,000 (3.2%) were called active. Inconclusive results (about 18%) are left out. Calls come from the whole dose curve; as a rule, active = well fitted cell-killing curve with a large enough effect; inconclusive = small, poorly fitted or top-dose-only effect, or effect the other way; inactive = flat fitted curve, though single readings scatter. Only a selection was taken, and actives are over-represented in it overall.
Reply using exactly one outcome from label 1 = active, label 0 = inactive

Please review the entries below; each comes with its answer.
>  <compound>
O=C(NCCCN1CCOCC1)c1ccc(N2CCCC2)c([N+](=O)[O-])c1

>  <assigned.category>
label 0

$$$$
>  <compound>
COc1cc(OC)c(/C=N/NC(=O)c2ccc([N+](=O)[O-])cc2)cc1Br

>  <assigned.category>
label 0

$$$$
>  <compound>
COc1ccc(CCNC(=O)CCCCn2c(=O)c3ccccc3n(Cc3ccccc3C)c2=O)cc1OC

>  <assigned.category>
label 0

$$$$
>  <compound>
C[C@H]1CN([C@@H](C)CO)C(=O)CCCn2cc(nn2)CO[C@@H]1CN(C)C(=O)Nc1ccccc1

>  <assigned.category>
label 0

$$$$
>  <compound>
CCOC1=C2CN(S(=O)(=O)c3ccc(C)cc3)[C@H](c3cccs3)C[C@H]2[C@H]2C(=O)N(c3ccccc3)C(=O)[C@H]2C1

>  <assigned.category>
label 0

$$$$

[ask] Short answer needed: outcome of this test for CC1(C)OC(=O)C2=C(C[C@@H](C3CC3)O[C@H]2CCc2cccc(Cl)c2)O1 ?
[reply] label 0

[ask] Short answer needed: outcome of this test for CC1=C(C(=O)N2CCOCC2)CC(CC(=O)NCCN2CCOCC2)C(=O)N1CCC1=CCCCC1 (stereo not given) ?
[reply] label 0

[ask] Short answer needed: outcome of this test for Cc1nnc(C)n1-c1ccc(C(=O)Nc2cccc(Br)c2)cc1 ?
[reply] label 0

[ask] Short answer needed: outcome of this test for CSc1ncnc2c1ncn2CCCNCc1cccs1 ?
[reply] label 0

[ask] Short answer needed: outcome of this test for COc1ccc(CSc2nc(N3CCOCC3)c3c(c2C#N)CC(C)(C)OC3)cc1 ?
[reply] label 0

[ask] Short answer needed: outcome of this test for CCOC(=O)[C@]12CCCC=C1N(Cc1ccc3c(c1)OCO3)C(=O)[C@H](CC(=O)N1CCN(C(=O)c3ccco3)CC1)C2 ?
[reply] label 0

---

# test.description: qHTS assay for MDR1-selective chemotherapeutics: Primary screen using the drug-selected MDR subline cells KB-V1; note: nearly all actives have a fitted effect of over 60% in size; note: potency is the fitted concentration of half-maximal effect
# condition: KB-V1 MDR cells viability, CellTiter-Glo, 72 h; series mostly up to 46.1 µM
Among all 400,000 compounds or so, about 13,000 (3.2%) were called active. Another 18% or so got no clear call; they are omitted. This excerpt belongs to a sample that is enriched for actives.
measured.quantity: Potency

Would you please look over these solved cases?
>  <given.smiles>
Cc1csc(NCC(=O)c2c[nH]c3ccccc23)n1

>  <Potency>
inactive

$$$$
>  <given.smiles>
CCOCCn1ccc2c(OCC(=O)NCc3ccc(C)cc3)cccc2c1=O

>  <Potency>
inactive

$$$$
>  <given.smiles>
CN(c1ccccc1)S(=O)(=O)c1cc(C(=O)Nc2nc3ccccc3[nH]2)ccc1Cl

>  <Potency>
3.66 µM (active)

$$$$
>  <given.smiles>
O=S(=O)(NCc1ccco1)c1cnc(Cl)c(Cl)c1

>  <Potency>
inactive

$$$$
>  <given.smiles>
C[C@@H]1CN([C@@H](C)CO)C(=O)CCCn2cc(nn2)CO[C@H]1CN(C)S(=O)(=O)c1ccc(-n2cccn2)cc1

>  <Potency>
inactive

$$$$
>  <given.smiles>
Cn1nnc2c(N3CCN(c4ccccc4)CC3)ncnc21

>  <Potency>
inactive

$$$$

[ask] Give its Potency value. Item: O=C(Nc1ccccc1)c1ccc(NC(=O)c2cccs2)cc1
[reply] inactive

[ask] Give its Potency value. Item: Cc1ccc(O)c(NC(=O)c2cc(-c3ccc(F)cc3)no2)c1
[reply] inactive

[ask] Give its Potency value. Item: COc1ccc(NC(=O)Cn2c(=O)cc(C)c3c(C)nn(-c4cccc(Cl)c4C)c32)cc1OC
[reply] inactive

[ask] Give its Potency value. Item: C/C(=N\Nc1ncc(Cl)cc1Cl)c1ccc(S(=O)(=O)NCc2ccco2)cc1
[reply] 2.06 µM (active)
